assay.context: in n-butanol, 293.15 K
measured.property: solubility (mole fraction)
Give the figure only, with no unit attached.

For Cn1cc[nH]c1=S , what is its reported solubility (mole fraction)? 0.0414

----------
assay.context: in ethanol, 303.15 K
measured.property: solubility (mole fraction)
Give the figure only, with no unit attached.

For Cn1cc[nH]c1=S , what is its reported solubility (mole fraction)? 0.0795

----------
assay.context: in isobutanol, 278.15 K
measured.property: solubility (mole fraction)
Give the figure only, with no unit attached.

For Cn1cc[nH]c1=S , what is its reported solubility (mole fraction)? 0.019

----------
assay.context: in acetone, 323.15 K
measured.property: solubility (mole fraction)
Give the figure only, with no unit attached.

For Cn1cc[nH]c1=S , what is its reported solubility (mole fraction)? 0.193
